Can you tell me pIC50 for the items I'm about to list?
- Target desc: P2X purinoceptor 7 (Rattus norvegicus, UniProt Q64663)
- Sequence (Q64663 whole entry): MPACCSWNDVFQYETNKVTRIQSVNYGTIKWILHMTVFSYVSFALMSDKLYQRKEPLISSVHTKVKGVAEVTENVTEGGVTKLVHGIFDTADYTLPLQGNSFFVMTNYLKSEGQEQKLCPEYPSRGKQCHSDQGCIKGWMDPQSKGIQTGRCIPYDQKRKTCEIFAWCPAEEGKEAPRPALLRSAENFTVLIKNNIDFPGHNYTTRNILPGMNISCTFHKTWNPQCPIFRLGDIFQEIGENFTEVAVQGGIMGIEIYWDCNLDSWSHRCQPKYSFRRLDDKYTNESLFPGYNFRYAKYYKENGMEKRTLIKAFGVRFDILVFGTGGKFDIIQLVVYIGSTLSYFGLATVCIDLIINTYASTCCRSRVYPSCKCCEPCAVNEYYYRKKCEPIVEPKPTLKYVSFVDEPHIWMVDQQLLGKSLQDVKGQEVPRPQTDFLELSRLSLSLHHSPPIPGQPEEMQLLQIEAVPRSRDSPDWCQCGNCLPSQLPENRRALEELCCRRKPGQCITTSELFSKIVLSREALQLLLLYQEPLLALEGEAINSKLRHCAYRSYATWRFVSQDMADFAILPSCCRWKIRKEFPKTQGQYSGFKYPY
- Protocol description: Inhibition of rat P2X7 receptor transfected in HEK293 cells by calcium influx assay
- Type: cell-based
pIC50: −log10 of the molar value.

Compound	pIC50
O=C1CCC(C(=O)NCC2CCCCCCC2)c2cccnc21 (configuration not stated)	< 6.00

Pending compound:
Would you kindly share the measured pIC50 for O=C(NCc1cccc(C(F)(F)F)c1Cl)[C@@]1(O)CCC(O)c2ncccc21 (some centres not stated) ?
> 6.00
